Recorded values, source PubChem BioAssay (NCI).

# run description: NCI Yeast Anticancer Drug Screen. Data for the rad50 strain (AID 155);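 note: 0% = growth of vehicle-only cultures of the same strain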
# condition summary: S. cerevisiae rad50 strain growth inhibition; at 50.0 µM; stronger effect = higher value
About 79,000 compounds went through this panel and 15% of them were active in at least one assay; those are over-represented in the sample as a whole. Activity calls are given as the source filed them. Cut-off read from the data, not from the text of the source: active = growth inhibition above about 70%; inactive = the rest.
Hi there, I'd appreciate the recorded growth inhibition for every entry that follows.

Notebook: Cc1cc2c(=O)c3ccccc3oc2c(C#N)c1C , growth inhibition read as 19.6% (inactive)

growth inhibition recorded for this compound, CN1CCN(CCCNN)CC1 , is 2.05% (inactive)

Summary for this compound, CCCCCCCCCCCCCCCC[N+](C)(C)Cc1ccccc1 : growth inhibition is 99.2% (active)

What the record says about COc1ccc(-c2cc(C(=O)Nc3cccc(C(F)(F)F)c3)[nH]c(=S)n2)cc1 : growth inhibition is -26.2% (inactive)

---

# run description: NCI Yeast Anticancer Drug Screen. Data for the rad50 strain (AID 155);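 note: 0% = growth of vehicle-only cultures of the same strain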
# condition summary: S. cerevisiae rad50 strain growth inhibition; at 50.0 µM
The panel holds about 79,000 compounds, 15% with a hit somewhere; the sample as a whole holds those more often. Activity calls are given as the source filed them. No stated cut-off is given here; in the data, active means growth inhibition above about 70%; inactive means the rest.
Please answer using one outcome listed in active, inactive

How was CCC(/C=C\C(C)C1CCC2C3CC=C4CC(OC)CCC4(C)C3CCC12C)C(C)C (stereo unspecified) classified in this test? inactive

Called result for Cc1ccc(C(C)C)nc1 inactive

Test call, this compound: CCOC(=O)c1c(C)[nH]c(=S)c(C#N)c1-c1cccc2ccccc12 inactive

Returns: the outcome recorded for Cc1c(O)c(=O)ccn1C1OC(CO)C(O)C1O (stereo unspecified) in this assay. inactive

Recorded test outcome, item COc1cc(C2CC(C)(N3CCCC3)Oc3cc4c(cc32)OCO4)cc(OC)c1OC (stereo unspecified) inactive

Short answer needed: outcome of this test for CC[N+](CC)=c1ccc2nc3c(cc(Nc4ccccc4)c4ccccc43)oc-2c1.[Cl][Zn][Cl] ? inactive

Status in this test for CC1(C)OCC2OC(O)C(OS(=O)(=O)c3ccc([N+](=O)[O-])cc3)C2O1 (stereo unspecified) ? inactive

Could you please tell me the result logged for CC1CC(c2ccccc2)(c2ccccc2)CN1C (stereo unspecified) in this assay? inactive

Any idea what this test logged for Cc1ncn(-c2ccccc2)c(=O)c1N=Cc1ccccc1 ? inactive

Please let me know the test result on file for CCC[CH2][Sn]([CH2]CCC)([O]C(=O)c1ccc(OC)c(OC)c1OC)[O][Sn]([CH2]CCC)([CH2]CCC)[O]C(=O)c1ccc(OC)c(OC)c1OC . active

GET /call?item= Cc1ccc(-c2cc(=O)c3cc(C)c(C)c(C#N)c3o2)cc1 returns the recorded outcome of this test. inactive

Can you look up the reported call for CC1(OC(=O)Nc2ccccc2)CCCCC1 for me? inactive

Kindly provide the recorded test outcome for the following compound: CCOC(=O)c1nc2ccccc2nc1NCc1ccc(Cl)cc1Cl inactive

Recorded test call requested for CC1COC2(CCCCC2)O1 (stereo unspecified) inactive

// outcome(item) with item = CCC(C)NC(=O)Nc1ccccc1 (stereo unspecified) inactive

Recorded test call requested for CC1=CCC(CC=O)C1(C)C (stereo unspecified) inactive

Would you mind telling me which call this test gave ClC1=CC(Cl)=C2N=C(N3CCCC3)N=C3N=C(C(Cl)(Cl)Cl)N=C1N32 ? inactive

Identify the outcome logged in this assay for the compound shown: O=C(OCc1c(-c2ccccc2)nn(-c2ccccc2)c1COC(=O)Oc1ccccc1)Oc1ccccc1 inactive

GET /call?item= CN(C)CCN=C1Nc2ccccc2C(=O)N2CSCC12 (stereo unspecified) returns the recorded outcome of this test. inactive

In this assay, the call recorded for CCCCOc1ccccc1C(=O)OC was what? inactive

Please state the recorded outcome for this compound: COc1cccc(/C(C=O)=C(\Cl)c2ccc(OC)c(OC)c2)c1 inactive
